test_description: Serum azithromycin pharmacokinetics after 2 hr intravenous infusion (Example 3)
Format: in vivo
test_context: male, human, 4.0 g total IV dose, 2 hr infusion, n = 5
reported_endpoint: Cmax (ng/mL)
Reply with just the number (in ng/mL).

I'd like to know its Cmax. The compound in question is CC[C@H]1OC(=O)[C@H](C)[C@@H](O[C@H]2C[C@@](C)(OC)[C@@H](O)[C@H](C)O2)[C@H](C)[C@@H](O[C@@H]2O[C@H](C)C[C@H](N(C)C)[C@H]2O)[C@](C)(O)C[C@@H](C)CN(C)[C@H](C)[C@@H](O)[C@]1(C)O [azithromycin]
9910
